# Test system: human bronchial epithelial cells, CFTR corrector, plate reader
# EXPERIMENTAL_PROTOCOL: rescue of ΔF508 CFTR function, airway epithelium – human bronchial epithelial cells, plate reader, cherry-pick, two tests, dose response (AID 743267)
# STUDY_CONDITIONS: measured here: test 2 replicate run
# 1 (yes) = AC50 below 3 µM (exclusive); 0 (no) = AC50 at/above 3 µM

Below, 10 compounds whose answers are already recorded.
COMPOUND	MEASUREMENT_TARGET	GROUP
C=CCN=c1scc(C)n1/N=C/c1ccc(O)c(O)c1	human bronchial epithelial cells, CFTR corrector, plate reader	0 (no)
Nc1nc(Cl)nc2c1ncn2C1CC(O)C(CO)O1 (stereo unspecified)	human bronchial epithelial cells, CFTR corrector, plate reader	1 (yes)
CCC(=O)NC(c1ccc(C)cc1)c1ccc2cccnc2c1O (stereo unspecified)	human bronchial epithelial cells, CFTR corrector, plate reader	0 (no)
NC1(C(=O)O)CC1	human bronchial epithelial cells, CFTR corrector, plate reader	0 (no)
COc1ccc(S(=O)(=O)Nc2cccc3ccc(O)cc23)cc1	human bronchial epithelial cells, CFTR corrector, plate reader	0 (no)
COc1ccc(C(=O)OCC(=O)N2C(C)CCCC2C)cc1S(=O)(=O)N1CCOCC1 (stereo unspecified)	human bronchial epithelial cells, CFTR corrector, plate reader	0 (no)
COc1ccc(S(=O)(=O)Nc2cc3c(cc2C(C)=O)OCO3)cc1	human bronchial epithelial cells, CFTR corrector, plate reader	0 (no)
COc1ccc2c(c1)/C(=C/c1cc(OC)c(OC)c(OC)c1)C(=O)N2	human bronchial epithelial cells, CFTR corrector, plate reader	1 (yes)
COc1ccc(OC)c2[nH]c(C(=O)N/N=C/c3ccccc3O)cc12	human bronchial epithelial cells, CFTR corrector, plate reader	1 (yes)
CCOC(=O)c1ccc(Nc2sc(C(=O)c3cccc([N+](=O)[O-])c3)c(N)c2C#N)cc1	human bronchial epithelial cells, CFTR corrector, plate reader	1 (yes)

## Task For `Cc1cc(Cl)cc(C)c1OCCn1ccnc1` , is the recorded AC50 below the cut-off of 3 µM?
## Result 0 (no)

###

# Tested on: human bronchial epithelial cells, CFTR corrector, plate reader
# EXPERIMENTAL_PROTOCOL: rescue of ΔF508 CFTR function, airway epithelium – human bronchial epithelial cells, plate reader, cherry-pick, two tests, dose response (AID 743267)
# STUDY_CONDITIONS: measured here: test 2 replicate run
As shown below, each of these compounds has a reported log10(AC50) value.
Values below are the log10 of the recorded AC50, with µM as the unit.

Answered cases to consult:
COMPOUND	QUANTITATIVE_READOUT
CCOC(=O)CSC1=C(C#N)C(c2ccc(C)s2)CC(=O)N1 (stereo not given)	0.75
Cc1occc1C(=O)N/N=C/c1c(O)ccc2ccccc12	0.26
CCOC(=O)[C@]12CCCC=C1N(Cc1cccc3ccccc13)C(=O)[C@H](CC(=O)NCc1cccc(C(F)(F)F)c1)C2	1.48
N=C1/C(=C/c2cccn2CCOc2ccccc2)C(=O)N=C2SC=C(c3ccccc3)N12	1.03
O=C(Nc1ccc(Br)cn1)c1cccc2ccccc12	0.29

// below: log10(AC50) requested for another compound
Query CC(=O)NC(c1ccc(Cl)cc1Cl)c1ccc2cccnc2c1O (stereo not given) yields log10(AC50) of 0.42

###

Below, each entry is listed alongside its reported log10 AC50.
# Tested on: human bronchial epithelial cells, CFTR corrector, plate reader
# EXPERIMENTAL_PROTOCOL: rescue of ΔF508 CFTR function, airway epithelium – human bronchial epithelial cells, plate reader, cherry-pick, two tests, dose response (AID 743267)
# STUDY_CONDITIONS: measured here: test 2 replicate run
Each number you see is log10 of AC50, and the unit inside the log is µM.

STRUCTURE_NOTATION	ASSAY_READOUT	QUANTITATIVE_READOUT
NCC(=O)NNC(=O)OCC1c2ccccc2-c2ccccc21	log10 AC50	0.87
O=C(N/N=C/c1c(O)ccc2ccccc12)C(=O)N1CCCC1	log10 AC50	1.10
NS(=O)(=O)c1ccc(NNC(=O)c2ccc(Br)o2)c([N+](=O)[O-])c1	log10 AC50	0.95
Cc1cc(C(=O)NNC(=O)c2ccc(Cl)c(S(N)(=O)=O)c2)c(C)o1	log10 AC50	0.84
Cc1cc(/C=N/n2c(COc3ccccc3C)nc3ccccc3c2=O)c(O)c([N+](=O)[O-])c1	log10 AC50	0.74
NS(=O)(=O)c1ccc(NC(=O)c2cccc3cc4ccccc4nc23)cc1	log10 AC50	0.68
Cc1cccc(N(C)S(=O)(=O)c2ccc(-c3cc(C)no3)s2)c1	log10 AC50	-0.13
Cc1ccnc2c1ccc1cccnc12	log10 AC50	1.26

The value of log10 AC50 recorded for `COCCNc1nc(Nc2ccc(C)cc2C)c2sccc2n1` when tested on human bronchial epithelial cells, CFTR corrector, plate reader reads 0.37

Response field log10 AC50 (human bronchial epithelial cells, CFTR corrector, plate reader) for item `COc1cc(C#Cc2ccc3cc(CCCO)oc(=O)c3c2)cc(OC)c1` : 1.01

The observed log10 AC50 for `N#C/C(=C/c1ccc(N2CCCCC2)o1)C(=O)Nc1ccc2ccccc2c1` when tested with human bronchial epithelial cells, CFTR corrector, plate reader stands at 0.82

###

# Test system: human bronchial epithelial cells, CFTR corrector, plate reader
# EXPERIMENTAL_PROTOCOL: rescue of ΔF508 CFTR function, airway epithelium – human bronchial epithelial cells, plate reader, cherry-pick, two tests, dose response (AID 743267)
# STUDY_CONDITIONS: measured here: test 2 replicate run
Strictly below 4 µM in AC50: Condition met. Otherwise: Condition not met.

COMPOUND	GROUP
CCOc1ccc(NC(=O)CN(c2ccc([N+](=O)[O-])cc2)S(=O)(=O)c2ccccc2)cc1	Condition not met
COC1C(C)OC(OC2CC(C)(O)Cc3cc4c(c(O)c32)C(=O)c2c(O)cc3c(c2C4=O)OC2OC3(C)C(O)C(N(C)C)C2O)C(OC)C1(C)OC (configuration not stated)	Condition not met
COc1ccc(C(=O)NCC(c2ccco2)N2CCc3ccccc32)cc1 (configuration not stated)	Condition met
CC(=O)c1ccc(Nc2cc(C)nc3c(C)cc(C)cc23)cc1	Condition met
Cc1c(C(=O)N/N=C/c2c(O)ccc3ccccc23)nnn1-c1nonc1N	Condition met

## Task Lab note: AC50 threshold 4 µM. Does this compound come in strictly under it? COC(=O)C1CC23C=CCN4CCC5(c6ccccc6NC15C2C)C43 (configuration not stated)
## Result Condition not met

## Task Take the compound `O=C(Nc1cccc(C2=NCCN2)c1)Nc1cccc(C2=NCCN2)c1` and say whether its AC50 is less than 4 µM.
## Result Condition not met

###

# log10(AC50) listing for each entry below
# Test system: human bronchial epithelial cells, CFTR corrector, plate reader
# EXPERIMENTAL_PROTOCOL: rescue of ΔF508 CFTR function, airway epithelium – human bronchial epithelial cells, plate reader, cherry-pick, two tests, dose response (AID 743267)
# STUDY_CONDITIONS: measured here: test 2 replicate run
// stored as log10 of AC50 expressed in µM

Below, 5 molecules whose answers are already recorded.
MOLECULE	MEASUREMENT_TARGET	log10(AC50)
CC(C)Oc1ncnc2c1[nH]c1ccccc12	human bronchial epithelial cells, CFTR corrector, plate reader	0.97
COc1cc(/C=C(\C#N)C(=O)c2c[nH]c3ccccc23)cc(OC)c1O	human bronchial epithelial cells, CFTR corrector, plate reader	0.92
CN(C)S(=O)(=O)c1ccc2c(c1)/C(=C/c1cc3c([nH]1)CCCC3)C(=O)N2	human bronchial epithelial cells, CFTR corrector, plate reader	0.82
C/C(=N\Nc1ncnc2sc(C)c(C)c12)c1ccccn1	human bronchial epithelial cells, CFTR corrector, plate reader	-0.23
Cc1ccc(-c2csc(Nc3ccccn3)n2)cc1	human bronchial epithelial cells, CFTR corrector, plate reader	1.42

Then there is this molecule:
Record summary for CCc1ccc(N2CC(C(=O)Nc3ccccc3N3CCCC3)CC2=O)cc1 (centres undefined) : reported log10(AC50) = 1.46

###

# System: human bronchial epithelial cells, CFTR corrector, plate reader
# EXPERIMENTAL_PROTOCOL: rescue of ΔF508 CFTR function, airway epithelium – human bronchial epithelial cells, plate reader, cherry-pick, two tests, dose response (AID 743267)
# STUDY_CONDITIONS: measured here: test 2 replicate run
List of AC50 values.
API: value field is a number in µM; no unit string.

COMPOUND	AC50 [µM]
Cc1cccc(N2CCN(S(=O)(=O)c3cc(-c4cc(C)no4)ccc3C)CC2C)c1 (stereo not given)	2.57
CCCn1c(CN2CCN(C(=O)OCC)CC2)nc2cc(NC(=O)CC)ccc21	4.34
N#CC(C#N)=C1C=C2C=C(N3CCCCCC3)CCC2CC1 (stereo not given)	0.239
COc1ccc2c(c1)C(O)C(CO)C(C(=O)O)C2 (stereo not given)	9.28

Next, consider the following compound.
Data point: CCC1(C)OC(c2ccccc2)=C/C(=C/C=C2C(=O)NC(=O)NC2=O)O1 (stereo not given) ; AC50 = 38.7
